Test: recombinant barcode read abundance after kanamycin selection (control-corrected) (log10(CPM+1)); higher = more efficient recombination; sequences stand for … in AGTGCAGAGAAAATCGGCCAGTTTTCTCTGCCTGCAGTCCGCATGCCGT…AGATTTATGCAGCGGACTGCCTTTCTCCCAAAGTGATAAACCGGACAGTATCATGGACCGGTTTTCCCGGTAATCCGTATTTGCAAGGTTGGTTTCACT; site = the 11-nt target;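 also: IS621 recombinase and bridge RNA in Escherichia coli cells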
// n strictly below 0.3 in recombinant barcode read abundance (log10); y otherwise

Past entries and their recorded results:
TATTGGACTTGGGTTCTAACCTGTTGCAA (site TATTGGACTCT) :: n
ACGCGGACTTGGGTTCTAACCTGTTGCCT (site ACGCCGACTAG) :: n
GTCTCTCCTTGGGTTCTAACCTGTTGCAG (site GTCTCTCCTCT) :: n
ACGTGGCCTTGGGTTCTAACCTGTTGCCA (site ACGTGGTCTTA) :: n
TCCTGTACTTGGGTTCTAACCTGTTGCAT (site TCCAGTACTAT) :: n

Asked: Hi, just wondering whether AAGGTTCCTTGGGTTCTAACCTGTTGCTA (site AAGGTCCCTTG) shows recombinant barcode read abundance (log10) of 0.3 or higher.
Given back: n

Asked: Same lookup for GTCCAGACTTGGGTTCTAACCTGTTGCCT (site GTACAGACTAG) , please.
Given back: y

Asked: Same lookup for ACATGAACTTGGGTTCTAACCTGTTGCAT (site ACATGCACTAT) , please.
Given back: n

Asked: Same lookup for GATCGATCTTGGGTTCTAACCTGTTGCAT (site GATCGATCTAT) , please.
Given back: y

Asked: Same lookup for TACCTATCTTGGGTTCTAACCTGTTGCCT (site TCCCTATCTAG) , please.
Given back: n

Asked: Same lookup for AAGCGTCCTTGGGTTCTAACCTGTTGCCT (site AAGCGTACTAG) , please.
Given back: y
